Data credit: paper PMC2071910

# TEST_NAME: In vitro metabolism in human lung precision-cut tissue slices, HPLC with UV detection
# Type: in vitro ADME
# COND: tissue extract, 6 h, 25 μM, mean ± SD n = 9
READOUT_LABEL: Total amount in human lung tissue slices: Parent compound (nmol/vial)

Some solved entries appear below for comparison.
CCCC1O[C@@H]2C[C@H]3[C@@H]4CCC5=CC(=O)C=C[C@]5(C)[C@H]4[C@@H](O)C[C@]3(C)[C@]2(C(=O)CO)O1 (stereo partly shown) [Budesonide, budesonide] : 8.41
CCC(=O)O[C@]1(C(=O)SCF)[C@H](C)C[C@H]2[C@@H]3C[C@H](F)C4=CC(=O)C=C[C@]4(C)[C@@]3(F)[C@@H](O)C[C@@]21C [Fluticasone propionate, fluticasone propionate] : 8.62

a: CC(C)C(=O)OCC(=O)[C@@]12O[C@H](C3CCCCC3)O[C@@H]1C[C@H]1[C@@H]3CCC4=CC(=O)C=C[C@]4(C)[C@H]3[C@@H](O)C[C@@]12C [Ciclesonide, ciclesonide]
b: CCC(=O)OCC(=O)[C@@]1(OC(=O)CC)[C@@H](C)C[C@H]2[C@@H]3CCC4=CC(=O)C=C[C@]4(C)[C@@]3(Cl)[C@@H](O)C[C@@]21C [Beclomethasone dipropionate, beclomethasone dipropionate]
Please state the entry with greater Total amount in human lung tissue slices: Parent compound among a and b . Please indicate the selected item by its label.
a
(a: 8.86 nmol/vial, b: 0.72 nmol/vial)
